The measured values listed here are drawn from PubChem BioAssay (NCI).

# Test system: SW-620 colon
# METHOD: NCI tumour cell line growth inhibition, 48 h
Reported TGI is given for each of the following compounds.

# count of solved cases: 4
>>> test_result("O=C1COCCN1c1ccc(NCc2cn(Cc3ccc(F)cc3)c3ccccc23)cc1")
"> 52.6 µM"
>>> test_result("COc1cc(C2C(Cl)C(=O)N2NC(=O)c2ccccc2O)cc(OC)c1OC (stereo not given)")
"> 10 µM"
>>> test_result("COC(=O)C1=C(C(=O)OC)C2CCC1CC2=O (stereo not given)")
"> 100 µM"
>>> test_result("COc1cc2c(cc1OC)-c1c(c3ccc([N+](=O)[O-])cc3c(=O)n1CCCBr)C2=O")
"> 100 µM"

response.value for `O=C(O)c1cccc(F)c1C(=O)c1ccc2ccccc2c1` (field: TGI) = > 100 µM

* * *

# Tested on: T-47D breast
# METHOD: NCI tumour cell line growth inhibition, 48 h
VALUE_KIND: TGI

Take a look at these entries with their results.
>>> test_result("COc1ccc(/C=C/C(=O)N[C@@H]2C(=O)N3[C@@H]2SC(C)(C)[C@@H]3C(=O)O)cc1OC")
"> 100 µM"
>>> test_result("COc1ccc(/C=N/C2=C(C#N)C(c3ccccc3)c3ccc4ccccc4c3O2)cc1 (configuration not stated)")
"> 100 µM"
>>> test_result("Cc1nc(N(C)C)nc(-c2cccc(-c3ccn(CCN(C)C)n3)c2)c1C")
"> 20 µM"

Documented TGI of `C=C(C)[C@H]1C=C[C@@H](OC(C)=O)[C@@]2(COC(C)=O)[C@H](OC(=O)CCC)[C@H]3[C@@H](OC(C)=O)[C@@H](C)C[C@]3(O)C(=O)[C@@](C)(OC(C)=O)[C@H]12` : 89.7 µM

response.value for CC(C)[Si](CC1=CCCCC12C(=O)N(COCC[Si](C)(C)C)c1ccccc12)(C(C)C)C(C)C (configuration not stated) (field: TGI) = 96.9 µM

Looking up `CC(=O)O[C@H]1CC[C@@]2(C)[C@@H](CC[C@@H]3[C@@H]2CC(=O)[C@@]2(C)[C@H]3C[C@@H]3CC(C)=CC(=O)[C@@H]32)C1` , I found its TGI recorded as > 100 µM

The compound listed as `O=C(O)c1cccc(F)c1C(=O)c1ccc2ccccc2c1` shows TGI equal to > 100 µM

* * *

# Tested on: OVCAR-4 ovarian
# METHOD: NCI tumour cell line growth inhibition, 48 h; in the data active = GI50 below about 0.43 µM; inactive = the rest
Please state which outcome applies, choosing from yes for active, no for inactive

>>> class("OC(c1cc2c(Cl)cc(Cl)cc2c2cc(C(F)(F)F)ccc12)C1CCCCN1 (stereo unspecified)")
"no"
>>> class("COc1ccc(/C=N/C2=C(C#N)C(c3ccccc3)c3ccc4ccccc4c3O2)cc1 (stereo unspecified)")
"no"
>>> class("O=C1/C=C/[C@@H](O)[C@@H]2C[C@@H](O)C[C@H]2/C=C/CCCCO1")
"no"

With those in mind, consider the next molecule.
# fetch the recorded call for `O=C1COCCN1c1ccc(NCc2cn(Cc3ccc(F)cc3)c3ccccc23)cc1` here yes

* * *

# System: HOP-92 NSCLC
# METHOD: NCI tumour cell line growth inhibition, 48 h; in the data active = GI50 below about 0.43 µM; inactive = the rest
Returns: one label drawn from TRUE = active, FALSE = inactive

Query: recorded result category for Nc1c2c(c(O)c3c1=C(CO)C=N3)=NCCS2=O (stereo unspecified) in this test FALSE

Returns: the outcome recorded for `COc1nc(C(Cl)(Cl)Cl)c(Cl)c(OC)c1Cl` in this assay. FALSE

What did the test return for `COc1cc(/C=C/C(=O)c2ccc(SC)cc2)cc(OC)c1OC` ? FALSE

# lookup: test call for `COc1ccc(-c2nn(C(=O)c3cc(OC)c(OC)c(OC)c3)c3cc(N)ccc23)cc1` FALSE

Which outcome did this test record for the molecule `COc1cc(Cl)c(C)cc1NC(=O)c1cc2ccccc2cc1O` ? TRUE

Identify the outcome logged in this assay for the molecule shown: OC(c1cc2c(Cl)cc(Cl)cc2c2cc(C(F)(F)F)ccc12)C1CCCCN1 (stereo unspecified) FALSE

* * *

# System: SNB-19 CNS
# METHOD: NCI tumour cell line growth inhibition, 48 h; in the data active = GI50 below about 0.43 µM; inactive = the rest
Write down one outcome, taken from Y for active, N for inactive

>>> class("COc1cc(/C=C2\\CCCC3=C2N=C2SC=NN2C3c2cc(OC)c(OC)c(OC)c2)cc(OC)c1OC (centres undefined)")
"N"
>>> class("NC(CSC(c1ccccc1)(c1ccccc1)c1ccc(Br)cc1)C(=O)O (centres undefined)")
"Y"

For `Nc1c(C(=O)Nc2cccc3ccccc23)sc2nc3c(cc12)CCCCCC3` , what call appears in the results of this test? N

Hello, I am checking results. What call was entered for `Nc1nc(-c2ccccc2Cl)cc(-c2ccc(Cl)cc2Cl)n1` ? N

* * *

# Tested on: SF-539 CNS
# METHOD: NCI tumour cell line growth inhibition, 48 h; in the data active means GI50 below about 0.43 µM; inactive means the rest
The reply should name one outcome from YES for active, NO for inactive

Could you please tell me the result logged for `C=CCOc1ccc2c(c1)CC[C@@H]1[C@@H]2CC[C@]2(C)C(=O)/C(=N/O)C[C@@H]12` in this assay? NO

I would be grateful if you could indicate the recorded call for `Nc1c(S(=O)(=O)O)cc2c(c1Cl)C(=O)c1ccccc1C2=O` . NO

I'd appreciate the recorded outcome for `O=C1/C=C/[C@@H](O)[C@@H]2C[C@@H](O)C[C@H]2/C=C/CCCCO1` from this test. YES

Could you kindly confirm the outcome this assay logged for `COc1ccc(-n2cc(-c3ccc(F)cc3)[nH]c2=O)cc1OC` ? NO

Outcome? `CN(Cc1cccc(Cl)c1)c1ccc(CO)c(Cl)c1` NO

What was the test verdict on `CC/C(=C(/c1ccc(Cl)cc1)c1ccc(OCCCN(C)C)cc1)c1ccc(OC)cc1` ? NO

Call for entry `COc1nc(C(Cl)(Cl)Cl)c(Cl)c(OC)c1Cl` : NO

Answer briefly: the call reported for `Cc1nc(N(C)C)nc(-c2cccc(-c3ccn(CCN(C)C)n3)c2)c1C` in this assay. NO

* * *

# System: HCT-116 colon
# METHOD: NCI tumour cell line growth inhibition, 48 h; in the data active = GI50 below about 0.43 µM; inactive = the rest
Give one outcome, nothing more. List: t (active), f (inactive)

Recorded results for 5 compounds are shown here.
>>> class("Nc1nc(-c2ccccc2Cl)cc(-c2ccc(Cl)cc2Cl)n1")
"f"
>>> class("COc1ccc(-c2nn(C(=O)c3cc(OC)c(OC)c(OC)c3)c3cc(N)ccc23)cc1")
"t"
>>> class("O=C1COCCN1c1ccc(NCc2cn(Cc3ccc(F)cc3)c3ccccc23)cc1")
"t"
>>> class("COc1cc(/C=C/C(=O)c2ccc(SC)cc2)cc(OC)c1OC")
"f"
>>> class("CCCCCCOc1ccc(/C=N/Nc2cc(C)nc3ccc(Br)cc23)cc1")
"f"

Name the outcome recorded for `N=C(N)c1ccc(-c2ccc(-c3ccccc3)o2)o1` in the assay. f

Record lookup: outcome of this test for OC(c1cc2c(Cl)cc(Cl)cc2c2cc(C(F)(F)F)ccc12)C1CCCCN1 (stereo not given) ? f

* * *

# System: CAKI-1 renal
# METHOD: NCI tumour cell line growth inhibition, 48 h
Consider the following compounds and their measured TGI readings.

>>> test_result("COc1cc2c(cc1OC)-c1c(c3ccc([N+](=O)[O-])cc3c(=O)n1CCCBr)C2=O")
"> 100 µM"

Notebook: `COc1ccc(/C=C/C(=O)N[C@@H]2C(=O)N3[C@@H]2SC(C)(C)[C@@H]3C(=O)O)cc1OC` , TGI read as > 100 µM

Given item O=c1n(CC2CO2)c2ccccc2n1CC1CS1 (stereo not given) , the value recorded as its TGI is > 100 µM

Reported TGI for O=c1c2ccc(Br)cc2nc(-c2ccccc2)n1NC1OC(CO)C(O)C(O)C1O (stereo not given) was > 100 µM

// field: TGI; key: COc1ccc(/C=C2\CCC(CN(C)C)C2=O)cc1 (stereo not given) ; value = 5.05 µM

* * *

GI50 reference
# Tested on: OVCAR-8 ovarian
# METHOD: NCI tumour cell line growth inhibition, 48 h

The examples below pair each entry with its known result.
>>> test_result("COc1ccc(-n2cc(-c3ccc(F)cc3)[nH]c2=O)cc1OC")
"82100 nM"
>>> test_result("COc1ccc2c(c1)cn1c3ccc(OC)cc3[nH]c(=O)c21")
"< 21.4 nM"
>>> test_result("Nc1nc(-c2ccccc2Cl)cc(-c2ccc(Cl)cc2Cl)n1")
"6870 nM"
>>> test_result("COc1ccc2nc3c(cc2c1)C(=O)CC(C(F)(F)F)C3 (stereo unspecified)")
"1220 nM"
>>> test_result("O=[N+]([O-])c1ccc(N/N=C\\c2ccc(O)cc2O)nc1")
"1520 nM"
>>> test_result("CCCCCCOc1ccc(/C=N/Nc2cc(C)nc3ccc(Br)cc23)cc1")
"2070 nM"
>>> test_result("O=c1c(Br)ccc(Br)cc1Br")
"2750 nM"
>>> test_result("COc1ccc(/C=N/C2=C(C#N)C(c3ccccc3)c3ccc4ccccc4c3O2)cc1 (stereo unspecified)")
"486 nM"
>>> test_result("COc1cc(Nc2nccc(-c3cnn4ncccc34)n2)cc(OC)c1")
"80.2 nM"
>>> test_result("COc1ccc(-c2nn(C(=O)c3cc(OC)c(OC)c(OC)c3)c3cc(N)ccc23)cc1")
"< 15.6 nM"

Now let's try a different one.
For reference, reported GI50 for COc1cc(/C=C2\CCCC3=C2N=C2SC=NN2C3c2cc(OC)c(OC)c(OC)c2)cc(OC)c1OC (stereo unspecified) stands at 3230 nM
